Data credit: patent US20060154964A1

study system: human δ receptors (Homo sapiens, UniProt P41143)
Construct: expressed in transfected cells
Sequence (P41143 whole entry): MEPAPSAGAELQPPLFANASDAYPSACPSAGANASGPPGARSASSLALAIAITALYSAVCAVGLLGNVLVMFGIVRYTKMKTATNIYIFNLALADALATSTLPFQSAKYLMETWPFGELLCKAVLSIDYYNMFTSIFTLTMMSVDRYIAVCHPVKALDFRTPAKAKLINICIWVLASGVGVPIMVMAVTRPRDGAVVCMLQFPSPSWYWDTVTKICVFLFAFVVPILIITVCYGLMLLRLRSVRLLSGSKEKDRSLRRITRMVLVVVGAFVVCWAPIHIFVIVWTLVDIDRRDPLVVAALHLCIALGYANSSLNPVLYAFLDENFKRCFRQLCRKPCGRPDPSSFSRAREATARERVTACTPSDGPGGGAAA
method notes: GTP[γ]35S binding functional assay, HEK-293S membranes expressing cloned human δ receptors
Format: biochemical
recorded conditions: Table 2; lower receptor expression; relative to standard δ agonist SNC80; read-out: Human δ % EMax (low)
parameter measured: Emax

Worked set:
• CCN(CC)C(=O)c1ccc(C(=C2CCN(Cc3ccco3)CC2)c2cccc(NC(C)=O)c2)cc1 [Compound 2] = 80 to 112%
• CCN(CC)C(=O)c1ccc(C(=C2CCN(Cc3ccncc3)CC2)c2cccc(NC(C)=O)c2)cc1 [Compound 6] = 80 to 112%
• CCN(CC)C(=O)c1ccc(C(=C2CCN(Cc3cccs3)CC2)c2cccc(NC(C)=O)c2)cc1 [Compound 1] = 80 to 112%
• CCN(CC)C(=O)c1ccc(C(=C2CCN(Cc3ccccn3)CC2)c2cccc(NC(C)=O)c2)cc1 [Compound 7] = 80 to 112%
• CCN(CC)C(=O)c1ccc(C(=C2CCN(Cc3cscn3)CC2)c2cccc(NC(C)=O)c2)cc1 [Compound 8] = 80 to 112%

Give Emax for each listed item.
1. CCN(CC)C(=O)c1ccc(C(=C2CCN(Cc3cncs3)CC2)c2cccc(NC(C)=O)c2)cc1 [Compound 9]
2. CCN(CC)C(=O)c1ccc(C(=C2CCN(Cc3cccnc3)CC2)c2cccc(NC(C)=O)c2)cc1 [Compound 5]

**Result**
80 to 112%
80 to 112%
